# TESTED_ON: Nitric oxide synthase (Mus musculus, UniProt P29477)
# Construct: endogenous in cells; crude cell lysate
# TEST_DETAILS: Screen 1: nitric oxide synthase inhibition, 3H-L-arginine to 3H-L-citrulline conversion, lysate of induced J774A-1 cells
# CONDITION_DETAILS: enzyme from LPS/IFNg-induced J774A-1 macrophage lysate; 1 hour at room temperature; read-out: IC50 (concentration of drug substance which gives 50% enzyme inhibition in the assay)
pIC50: −log10 of the molar value.
MEASUREMENT_KIND: pIC50

SMILES_TEXT | TESTED_ON | MEASUREMENT_KIND | REPORTED_MEASUREMENT
N=C(N)NN | Nitric oxide synthase (Mus musculus, UniProt P29477) | pIC50 | 5.00
